Values from ChEMBL document CHEMBL1201862

system name: Corticotropin-releasing factor receptor 2/Corticotropin-releasing factor-binding protein (Homo sapiens, UniProt P24387+Q13324)
Sequence (Q13324 whole entry): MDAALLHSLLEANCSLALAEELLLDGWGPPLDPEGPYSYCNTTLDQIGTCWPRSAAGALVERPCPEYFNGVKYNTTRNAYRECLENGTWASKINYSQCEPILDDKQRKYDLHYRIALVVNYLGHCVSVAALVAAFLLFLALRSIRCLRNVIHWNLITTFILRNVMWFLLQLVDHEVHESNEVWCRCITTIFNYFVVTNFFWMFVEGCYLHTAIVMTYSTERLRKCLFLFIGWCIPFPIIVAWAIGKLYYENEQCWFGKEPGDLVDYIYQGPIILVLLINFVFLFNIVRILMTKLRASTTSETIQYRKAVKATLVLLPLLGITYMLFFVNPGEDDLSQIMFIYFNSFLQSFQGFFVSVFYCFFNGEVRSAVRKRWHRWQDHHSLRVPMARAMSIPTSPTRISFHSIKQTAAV
Sequence (P24387 whole entry): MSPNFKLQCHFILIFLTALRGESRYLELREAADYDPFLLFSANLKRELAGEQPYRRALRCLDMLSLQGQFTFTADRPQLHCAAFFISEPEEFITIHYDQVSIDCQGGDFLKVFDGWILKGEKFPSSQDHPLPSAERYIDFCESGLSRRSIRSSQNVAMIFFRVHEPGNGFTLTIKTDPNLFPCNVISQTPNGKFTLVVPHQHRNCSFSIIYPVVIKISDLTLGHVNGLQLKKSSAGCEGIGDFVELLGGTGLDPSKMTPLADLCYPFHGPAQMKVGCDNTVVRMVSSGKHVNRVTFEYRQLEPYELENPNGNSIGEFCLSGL
run description: activators of CRF receptor 2 with binding protein – uHTS hits, confirmation (AID 602473)
Format: functional
assay context: read-out: EC50_Mean
Active and inactive are the calls of the source.
Entries and their EC50
measure name: EC50

Cc1ccsc1C1NC(=O)c2c(sc3c2CCN(C)C3)N1 (stereo not drawn); > 53 µM (inactive)
COC(=O)C1=C(C)N=C(C)/C(=C(/O)OC)C1/C=C/c1ccccc1 (stereo not drawn); > 53 µM (inactive)
Cc1ccc(C(=O)Nc2ccccc2C(=O)NC2CCCCC2)cc1S(=O)(=O)N1CCOCC1; > 53 µM (inactive)

###

Entries and their EC50
system name: Protein RecA (Mycobacterium tuberculosis, UniProt P9WHJ3)
run description: Fluorescence Cell-Free Homogeneous Dose Retest to Identify Inhibitors of RecA-Intein Splicing Activity. [Related pubchem assays (depositor defined):AID2097, AID2223, AID489010, AID492950]
Type: functional
Calls of active or inactive are those of the source.
measure name: EC50

CC(C)NC(=S)NC(c1ccccc1)(c1ccccc1)c1ccccc1; 136 µM (inconclusive)
CCC(C)NC(=O)c1c(N)n(Cc2ccc3c(c2)OCO3)c2nc3ccccc3nc12 (stereo not drawn); > 380 µM (inconclusive)
CN1/C(=C/C(=O)c2nc(S(C)(=O)=O)ncc2Cl)C(C)(C)c2ccccc21; 1.81 µM (active)
O=C1c2ccccc2OC2(C=Cc3ccccc3O2)N1Cc1ccccc1 (stereo not drawn); 166 µM (active)
O=C1CS/C(=C\[N+](=O)[O-])N1c1ccc(OC(F)(F)F)cc1; 10.9 µM (active)
CCc1ccc(/C=C/C(=O)C2C(=O)c3ccccc3C2=O)cc1; 22.7 µM (active)
CC1(N2CCOCC2)CC2(O)C(=[N+]1[O-])CCc1nonc12 (stereo not drawn); 11.9 µM (active)
COC(CN(C(=O)CCl)C(C(=O)NC1CCCC(C)C1C)c1ccc(C)cc1)OC (stereo not drawn); 2.11 µM (active)

###

system name: Microphthalmia-associated transcription factor (Homo sapiens)
Sequence (O75030 whole entry): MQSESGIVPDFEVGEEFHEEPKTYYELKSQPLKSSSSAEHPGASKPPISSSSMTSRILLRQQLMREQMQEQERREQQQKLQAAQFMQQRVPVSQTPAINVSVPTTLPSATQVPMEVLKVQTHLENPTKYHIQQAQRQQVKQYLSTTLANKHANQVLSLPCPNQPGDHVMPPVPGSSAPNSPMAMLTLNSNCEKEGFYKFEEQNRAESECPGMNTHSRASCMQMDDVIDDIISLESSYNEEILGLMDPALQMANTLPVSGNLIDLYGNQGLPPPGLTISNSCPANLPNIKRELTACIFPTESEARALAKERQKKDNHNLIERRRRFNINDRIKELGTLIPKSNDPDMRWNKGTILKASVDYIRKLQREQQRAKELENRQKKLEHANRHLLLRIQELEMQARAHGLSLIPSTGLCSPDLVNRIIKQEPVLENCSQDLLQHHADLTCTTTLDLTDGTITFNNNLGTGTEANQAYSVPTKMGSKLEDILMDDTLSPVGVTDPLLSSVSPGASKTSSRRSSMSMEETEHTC
run description: reducers of TRPM1 reporter luminescence, concentration series – cell-based, SK-MEL-5, cherry-picked, set 3, MITF inhibitor project, dose response (AID 493073);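 also: SK-MEL-5 melanoma cells with luciferase driven by the MITF target TRPM1 promoter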
Format: functional
The source made the active and inactive calls.
measure name: AC50

O=C1NC2c3c(I)sc(I)c3C(=O)C2O1 (centres undefined); 15.5 µM (active)
O=C(COc1ccc(Cl)cc1Cl)Nc1ccccn1; 2.19 µM (active)
BrC(=C\c1ccccc1)/C=N/n1cnnc1; 7.26 µM (active)
CCCNC(=O)COC(=O)c1ccccc1C(=O)c1ccc(Cl)c([N+](=O)[O-])c1; 8.34 µM (active)

###

system name: Caspase-3 (Homo sapiens, UniProt P42574);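 also: Dose-response selectivity test against caspase-3 for candidate inhibitors of sentrin-specific proteases (SENPs)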
Sequence (P42574 29-175 limits assumed): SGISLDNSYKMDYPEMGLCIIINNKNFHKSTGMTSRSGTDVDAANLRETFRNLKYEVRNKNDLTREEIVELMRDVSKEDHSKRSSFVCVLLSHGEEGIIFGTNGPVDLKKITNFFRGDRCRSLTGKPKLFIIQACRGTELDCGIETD
Sequence (P42574 176-277 limits assumed): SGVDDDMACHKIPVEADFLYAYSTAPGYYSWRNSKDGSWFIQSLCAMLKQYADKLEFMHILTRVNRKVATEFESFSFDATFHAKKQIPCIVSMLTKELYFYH
Type: functional
Calls of active or inactive are those of the source.
Entries and their IC50
measure name: IC50

O=C(Nc1ccc2c(c1)CCC2)c1cccc(S(=O)(=O)Nc2ccccc2Cl)c1; 70.3 µM (active)
CCCC1CCC(c2ccc(OCC)cc2)=CC1=O (stereo not given); 21.3 µM (active)
N#Cc1c(NC(=O)CSc2nc[nH]n2)sc2c1CCCCC2; 45.2 µM (active)
O=[N+]([O-])c1ccc(CSc2nc3ccccc3o2)cc1; 25.6 µM (active)
Cc1ccc(C(=O)Nc2cccc3cccnc23)cc1C; 15.6 µM (active)

###

Entries and their AC50
system name: Cytochrome P450 2C19 (Homo sapiens)
Sequence (P33261 whole entry): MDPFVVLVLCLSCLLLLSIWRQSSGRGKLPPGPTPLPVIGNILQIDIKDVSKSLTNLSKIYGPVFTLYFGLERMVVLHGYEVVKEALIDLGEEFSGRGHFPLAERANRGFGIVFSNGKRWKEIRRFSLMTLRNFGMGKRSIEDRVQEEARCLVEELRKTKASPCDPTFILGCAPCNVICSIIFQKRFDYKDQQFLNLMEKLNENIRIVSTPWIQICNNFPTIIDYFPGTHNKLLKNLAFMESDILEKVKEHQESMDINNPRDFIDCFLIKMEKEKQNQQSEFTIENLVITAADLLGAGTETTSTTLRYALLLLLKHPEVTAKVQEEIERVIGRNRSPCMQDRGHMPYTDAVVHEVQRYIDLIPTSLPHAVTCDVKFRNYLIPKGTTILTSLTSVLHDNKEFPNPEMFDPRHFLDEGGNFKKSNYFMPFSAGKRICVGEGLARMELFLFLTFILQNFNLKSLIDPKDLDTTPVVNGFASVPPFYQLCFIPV
run description: Cytochrome panel assay with activity outcomes. Panel member name: p450-cyp2c19 Compounds with AC50 equal or less than 10 uM are considered active
Type: functional
assay context: read-out: AC50
measure name: AC50

Cc1cc2nc(C3CCCN(C(S)=Nc4ccccc4)C3)[nH]c2cc1C (centres undefined); 7.08 µM (inconclusive)
COc1ccc(C(=O)C2=C(O)C(=O)N(Cc3cccnc3)C2c2ccco2)cc1OC (centres undefined); 0.0891 µM (inconclusive)
Brc1ccc2ncnc(Nc3cccc4ccccc34)c2c1; 2.82 µM (inconclusive)
COc1cccc(Cn2c(=O)c(-c3ccc(F)cc3)nc3cnc(N4CCNCC4)nc32)c1; 39.8 µM (inconclusive)

###

Entries and their AC50
system name: Paired box protein Pax-8 (Homo sapiens, UniProt Q06710)
Sequence (Q06710 whole entry): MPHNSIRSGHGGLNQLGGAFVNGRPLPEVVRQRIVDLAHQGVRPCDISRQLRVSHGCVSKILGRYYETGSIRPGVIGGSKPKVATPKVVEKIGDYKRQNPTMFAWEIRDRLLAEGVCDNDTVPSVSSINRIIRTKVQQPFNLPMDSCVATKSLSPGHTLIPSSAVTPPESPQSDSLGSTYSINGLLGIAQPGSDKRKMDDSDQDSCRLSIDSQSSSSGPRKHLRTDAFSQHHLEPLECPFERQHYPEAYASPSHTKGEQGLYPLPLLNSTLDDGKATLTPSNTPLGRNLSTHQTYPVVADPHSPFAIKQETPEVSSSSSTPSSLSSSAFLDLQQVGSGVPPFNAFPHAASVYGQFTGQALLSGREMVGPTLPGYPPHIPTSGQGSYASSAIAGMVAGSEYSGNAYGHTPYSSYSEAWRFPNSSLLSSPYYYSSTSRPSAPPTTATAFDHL
run description: PAX8 transcriptional activity inhibition in RMG-I – RMG-I cells, luciferase, cherry-pick, dose response (AID 687027);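 also: luciferase reporter driven by Pax8 target thyroperoxidase promoter measured by SteadyGlo luminescence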
Format: functional, cell-based
Active and inactive are the calls of the source.
measure name: AC50

O=C(C#Cc1ccccc1)c1ccco1; 9.61 µM (active)
Cc1ccc(S(=O)(=O)c2ncccc2[N+](=O)[O-])cc1; 8.34 µM (active)
C[C@@H]1CCCCO[C@H](CN(C)Cc2ccc(C(=O)Nc3ccccc3N)cc2)[C@@H](C)CN([C@@H](C)CO)C(=O)c2cc(NS(=O)(=O)c3ccc(Cl)cc3)ccc2O1; 11.7 µM (active)
COc1ccc2c3c(n(C)c2c1)[C@H](CO)N(C(=O)Nc1ccc(F)cc1)CC31CCN(S(=O)(=O)c2cccc(C)c2)CC1; 7.72 µM (active)
C#Cc1cc(N2CCN(C(=O)c3ccoc3)CC2)n2nc(-c3cccc(Cl)c3)cc2n1; 3.79 µM (active)

###

system name: Streptokinase A (Streptococcus pyogenes serotype M1, UniProt P10520)
Sequence (P10520 whole entry): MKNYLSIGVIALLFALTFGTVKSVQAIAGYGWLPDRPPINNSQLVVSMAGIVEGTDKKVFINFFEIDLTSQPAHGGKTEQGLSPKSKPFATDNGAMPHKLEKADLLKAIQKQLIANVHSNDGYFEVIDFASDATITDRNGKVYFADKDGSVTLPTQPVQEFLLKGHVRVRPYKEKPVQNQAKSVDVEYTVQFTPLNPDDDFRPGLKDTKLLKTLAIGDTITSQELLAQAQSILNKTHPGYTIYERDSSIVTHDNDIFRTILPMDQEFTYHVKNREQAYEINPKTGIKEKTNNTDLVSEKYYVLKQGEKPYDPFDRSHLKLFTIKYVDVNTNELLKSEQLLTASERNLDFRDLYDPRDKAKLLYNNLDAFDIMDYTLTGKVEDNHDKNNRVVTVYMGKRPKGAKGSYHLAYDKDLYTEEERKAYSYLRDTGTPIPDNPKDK
run description: viability-normalized secreted streptokinase activity reduction – plasminogen activation absorbance, OD405, dose response (AID 1914);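 also: secreted streptokinase activity via plasminogen activation per viability signal from cell pellet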
Assay type: functional, Streptococcus pyogenes M1 GAS
Calls of active or inactive are those of the source.
measure name: EC50

O=C(Nc1ccc(F)cc1)N1CCCCCC1; > 150 µM (not active)
O=C(NC(=S)Nc1cccc(-c2ccc(CO)o2)c1)c1cccs1; > 150 µM (not active)
CC(C)C(=O)NC(c1ccccc1)c1cc([N+](=O)[O-])c2cccnc2c1O (stereo not given); > 150 µM (not active)
CC(C)NC(=S)NC(c1ccccc1)(c1ccccc1)c1ccccc1; 11.7 µM (active)
C/C(=N/NC(=O)c1cc(-c2ccccc2)nc2c(Cl)cccc12)c1cccnc1; 25.9 µM (inconclusive)
CC(COc1ccc(C(C)C)cc1)NC(=O)c1ccc(Br)o1 (stereo not given); > 150 µM (not active)
COc1ccc(CNC(=O)Cc2csc(NC(=O)Nc3ccccc3OC)n2)cc1; > 150 µM (not active)
CCc1c(C)sc2nc(C(C)C)nc(SCC(=O)N3CCc4ccccc4C3)c12; 2.38 µM (active)
O=C(NC(=S)NNC(=O)c1cccs1)c1ccccc1; > 150 µM (not active)
Cc1cc(C(=O)OC(C(=O)Nc2cccc(C(F)(F)F)c2)c2ccccc2)c(C)o1 (stereo not given); 4.11 µM (active)

###

system name: Large T antigen (Simian virus 40, UniProt P03070);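 also: Confirmatory-stage PubChem screen for compounds that inhibit SV40 T antigen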
Sequence (P03070 whole entry): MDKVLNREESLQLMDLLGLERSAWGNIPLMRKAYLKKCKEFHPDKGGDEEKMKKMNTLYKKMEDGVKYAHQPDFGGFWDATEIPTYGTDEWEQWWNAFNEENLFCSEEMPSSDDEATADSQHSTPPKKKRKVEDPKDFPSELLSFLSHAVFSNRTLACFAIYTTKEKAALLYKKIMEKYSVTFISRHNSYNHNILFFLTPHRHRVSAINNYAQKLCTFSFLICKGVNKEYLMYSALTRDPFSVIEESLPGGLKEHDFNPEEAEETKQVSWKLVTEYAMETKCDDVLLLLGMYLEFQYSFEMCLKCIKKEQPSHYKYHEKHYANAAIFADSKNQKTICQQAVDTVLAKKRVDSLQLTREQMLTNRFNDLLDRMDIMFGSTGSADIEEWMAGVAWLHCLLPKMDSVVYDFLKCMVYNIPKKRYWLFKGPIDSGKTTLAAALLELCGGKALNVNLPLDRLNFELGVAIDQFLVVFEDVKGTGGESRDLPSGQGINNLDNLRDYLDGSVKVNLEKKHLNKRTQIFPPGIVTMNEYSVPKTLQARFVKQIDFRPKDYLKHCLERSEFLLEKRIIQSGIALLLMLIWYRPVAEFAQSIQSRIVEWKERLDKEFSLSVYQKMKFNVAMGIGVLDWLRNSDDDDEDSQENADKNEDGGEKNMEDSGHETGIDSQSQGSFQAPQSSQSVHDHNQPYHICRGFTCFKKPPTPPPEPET
Format: functional, Betapolyomavirus macacae
Activity calls are given as the source filed them.
Entries and their IC50
measure name: IC50

Cc1ccc(-n2sc3ccccc3c2=O)cc1S(=O)(=O)N1CCCCC1; 26.1 µM (active)
O=C(O)CCn1cc(C=C2C(=O)NC(=S)NC2=O)c(-c2cccc(Cl)c2)n1; 76.3 µM (active)
Oc1ccc(-c2nc3ncccn3c2Nc2ccc3c(c2)OCO3)cc1; 15.6 µM (active)
C=CCOc1ccccc1CNc1ccc2[nH]c(O)nc2c1; 19 µM (active)
O=C(Nc1cccc(N2C(=O)C=CC2=O)c1)c1cccs1; 70.5 µM (active)
